Numbers sourced from patent US6767991.

biological target: recombinant NS3 protease with the NS4A peptide cofactor … (molar ratio enzyme:cofactor 1:100) (hepatitis C virus genotype 1b); experiment: cell-based or functional assay
Where no end group is shown, it is not given here. [ ]: non-standard residue; d: D form. Pro(2-NpCH2O) = Pro(4-R13), R13 = 2-NpCH2O; Pro(4-OBn) = Pro(4-R13), R13 = OBn; Pro(O-Bn) = Pro(4-R13), R13 = O-Bn; Chg = N[C@H](C(=O)O)C1CCCCC1; Acca = not defined here; Nva = CCC[C@H](N)C(=O)O
MEASUREMENT KIND: IC50 (nM)
Return type: number; implicit unit nM.

Record request: IC50 value, item Ac-D[dE][Chg]EE[Acca] (reading uncertain) [Compound 132 (Table 1): Ac-Asp-D-Glu-Chg-Glu-Glu-Acca]
36000

Report IC50 for Ac-D[dV]IV[Pro(O-Bn)][Nva] [Compound 202 (Table 2): Ac-Asp-D-Val-Ile-Val-Pro(O-Bn)-Nva] please.
930

Item Ac-D[dE]IV[Pro(4-OBn)][Nva] [Compound 218 (Table 2): Ac-Asp-D-Glu-Ile-Val-Pro(O-Bn)-Nva] has what recorded IC50?
490

Which IC50 is reported for this binder? Ac-GIVP[Nva] (not fully specified (residue 4); also: Ile2 thioxo (L-thionoisoleucine), thioamide) [Compound 236 (Table 2): Ac-Gly-thioxo-Ile-Val-Pro(1-NpCH2O)-Nva]
4000

I would be grateful if you could share the reported IC50 for Ac-D[dE]IV[Pro(2-NpCH2O)][Nva] [Compound 213 (Table 2): Ac-Asp-D-Glu-Ile-Val-Pro(2-NpCH2O)-Nva] .
36

Find the recorded IC50 belonging to Ac-D[dE][Chg]V[Pro(O-Bn)][Nva] [Compound 211 (Table 2): Ac-Asp-D-Glu-Chg-Val-Pro(O-Bn)-Nva] and report it.
120
